# Type: in vivo, human
# run_conditions: human, plasma, oral
reported_metric: half-life (h)
Form entry: value (h) — number only.

Which half-life reading was recorded for the compound CC(C)[C@H](NC(=O)C(C)(F)F)[C@H](Oc1ccc2c(cnn2-c2ccc(=O)n(C)c2)c1)c1ccccc1 ? 4.4

====

# Assay type: in vivo, human
# run_conditions: human, plasma, oral
reported_metric: half-life
Note: a bare number is incomplete; add the unit.

I have this compound here, C[C@]12C=CC(=O)C=C1CC[C@@H]1[C@@H]2[C@@H](O)C[C@@]2(C)[C@H]1CC[C@]2(O)C(=O)CO , and I need its recorded half-life. 1.9 h
